I'd appreciate it if you could supply EC50 values for the items below.
Enter your answer as a number in µM; do not include the unit.

QUERY: Lab note: need EC50 for CCNc1nc(C)c(S(=O)(=O)N2Cc3cc4c(cc3C[C@H]2C(=O)N[C@@H](Cc2ccc(-c3ccc(F)cc3)cc2)C(=O)O)OCC(c2ccc(OCc3ccc(Cl)c(Cl)c3)cc2)O4)s1 (some centres not stated) on Glucagon-like peptide 1 receptor (Homo sapiens, UniProt P43220), anyone have it?
RESULT: 0.131

QUERY: Lab note: need EC50 for Cc1nccc(-c2ccc(C[C@H](NC(=O)[C@@H]3Cc4cc5c(cc4CN3C(=O)OCC(C)(C)C)O[C@@H](c3ccc(OCc4ccc(Cl)c(Cl)c4)cc3)CO5)C(=O)O)cc2)c1C on Glucagon-like peptide 1 receptor (Homo sapiens, UniProt P43220), anyone have it?
RESULT: 0.087

QUERY: Lab note: need EC50 for CCCCOC(=O)N1Cc2cc3c(cc2C[C@H]1C(=O)N[C@@H](Cc1ccc(-c2ccnc(C)c2C)cc1)C(=O)O)OC[C@H](c1ccc(OCc2ccc(Cl)c(Cl)c2)cc1)O3 on Glucagon-like peptide 1 receptor (Homo sapiens, UniProt P43220), anyone have it?
RESULT: 0.064

QUERY: Lab note: need EC50 for Cc1nc(C(=O)N2Cc3cc4c(cc3C[C@H]2C(=O)N[C@@H](Cc2ccc(-c3ccc(C#N)cc3)cc2)C(=O)O)OC[C@H](c2ccc(OCc3ccc(Cl)c(Cl)c3)cc2)O4)c(C)o1 on Glucagon-like peptide 1 receptor (Homo sapiens, UniProt P43220), anyone have it?
RESULT: 0.156

QUERY: Lab note: need EC50 for CC[C@@H](c1ccccc1)N1Cc2cc3c(cc2C[C@H]1C(=O)N[C@@H](Cc1ccc(-c2ccnc(C)c2)cc1)C(=O)O)OC[C@H](c1ccc(OCc2ccc(Cl)c(Cl)c2)cc1)O3 on Glucagon-like peptide 1 receptor (Homo sapiens, UniProt P43220), anyone have it?
RESULT: 0.02

QUERY: Lab note: need EC50 for Cc1nccc(-c2ccc(C[C@H](NC(=O)[C@@H]3Cc4cc5c(cc4CN3C(=O)OCc3ccccc3)O[C@@H](c3ccc(OCc4ccc(Cl)c(Cl)c4)cc3)CO5)C(=O)O)cc2)c1C on Glucagon-like peptide 1 receptor (Homo sapiens, UniProt P43220), anyone have it?
RESULT: 0.023

QUERY: Lab note: need EC50 for Cc1nc(NCC2CC2)sc1S(=O)(=O)N1Cc2cc3c(cc2C[C@H]1C(=O)N[C@@H](Cc1ccc(-c2ccc(C#N)cc2)cc1)C(=O)O)OCC(c1ccc(OCc2ccc(Cl)c(Cl)c2)cc1)O3 (some centres not stated) on Glucagon-like peptide 1 receptor (Homo sapiens, UniProt P43220), anyone have it?
RESULT: 0.075
